Test system: LTC4
Test: Antagonism in isolated guinea-pig trachea, Test method (i) (Table 3, given as LTC4 antagonism)
Format: cell-based
Conditions: Cavia porcellus, 5 min, test compound 10^-5 g/ml, given as LTC4 antagonisms
I'd appreciate it if you could supply inhibition at 10 µg/mL values for the items below.
Give bare numbers, in %.

See these solved cases before continuing.
CC(C)n1ncc(NCCc2ccc(O)cc2)c(Cl)c1=O; 69
CCn1ncc(NCC(O)COS(=O)(=O)c2ccc(C)cc2)c(Cl)c1=O (stereo not shown); 16
CCCc1cc(OC)ccc1OCC(O)CNc1cnn(C(C)C)c(=O)c1Cl (stereo not shown); 70
C=CCc1cc(C(=O)O)ccc1OCCCNc1cnn(C(C)C)c(=O)c1Cl; 65
CCn1ncc(NCCCOc2ccccc2OC)c(Cl)c1=O; 35

Each compound below has a reported value. Please supply its inhibition at 10 µg/mL.
1. CCc1cc(C(N)=O)ccc1OCCCNc1cnn(C(C)C)c(=O)c1Cl
2. CCCCc1cc(C(=O)OC)ccc1OCCCNc1cnn(C(C)C)c(=O)c1Cl

A.
1: 93; 2: 77

Each compound below has a reported value. Please supply its inhibition at 10 µg/mL.
1. CCc1cc(C(=O)OC)ccc1OCCCNc1cnn(C(C)C)c(=O)c1Cl
2. C=CCc1cc(C#N)ccc1OCCCNc1cnn(C(C)C)c(=O)c1Cl
3. CCCc1cc(C#N)ccc1OCCCNc1cnn(CC)c(=O)c1Br

A.
1: 92; 2: 99; 3: 90

Each compound below has a reported value. Please supply its inhibition at 10 µg/mL.
1. CCCc1cc(C(=O)OC)ccc1OCC(=O)CNc1cnn(C(C)C)c(=O)c1Cl
2. CCOC(=O)c1ccc(OCCCOc2cnn(CC)c(=O)c2Cl)c(Cl)c1

A.
71
40

====

System: LTD4
Test: LTD4 antagonism in isolated guinea-pig trachea with indomethacin, Test method (ii) (Table 4)
Format: cell-based
Conditions: Cavia porcellus, 0.5 h, LTD4 2×10^-8 g/ml, test compound 10^-6 g/ml, 30 min prior, 5 μmol indomethacin
The label depends only on inhibition at 1 µg/mL: Criterion met if it is at least 80%, Criterion not met if it is smaller.

CCCCCc1cc(C(=O)O)ccc1OCCCNc1cnn(CC)c(=O)c1Cl; Criterion met
CCCc1cc(C(=O)OC)ccc1OCCCNc1cnn(C(C)C)c(=O)c1Cl; Criterion not met
CCCc1c(OCC(O)COc2ccc3c(=O)cc(C(=O)O)oc3c2CCC)ccc(C(C)=O)c1O (centres unmarked) [FPL-55712, reference compound]; Criterion met
CCCc1cc(OC)ccc1OCCCNc1cnn(C(C)C)c(=O)c1Cl; Criterion not met
CCCCc1cc(C(N)=O)ccc1OCCCNc1cnn(CC)c(=O)c1Cl; Criterion not met

Attention now shifts to the item below.
Q. Record CCCc1cc(C(N)=O)ccc1OCCCNc1cnn(C(C)C)c(=O)c1Br ; criterion: inhibition at 1 µg/mL no lower than 80%. Met?
A. Criterion met

====

Test system: LTC4
Test: Antagonism in isolated guinea-pig trachea, Test method (i) (Table 3, given as LTC4 antagonism)
Format: cell-based
Settings: Cavia porcellus, 5 min, test compound 10^-5 g/ml, given as LTC4 antagonisms
Attribute Measured: inhibition at 10 µg/mL (%)
One number for each entry, in %.

See these solved cases before continuing.
CCCc1cc(C(=O)O)ccc1OCCCNc1cnn(CC)c(=O)c1Br [compound 119]; 100
CCn1ncc(NCCCOc2ccc(C(=O)OC)cc2C(C)C)c(Cl)c1=O [compound 103]; 93
CCCc1c(OCCCOc2cnn(C(C)(C)C)c(=O)c2CC)ccc2c(=O)cc(C(=O)OCC)oc12 [compound 26]; 15
C=CCc1cc(C#N)ccc1OCCCNc1cnn(CC)c(=O)c1Br [Compound No. 117]; 98
CCc1cc(C(=O)OC)ccc1OCCCNc1cnn(CC)c(=O)c1Cl [compound 96]; 77
CCOC(=O)c1ccc(OCCCNc2cnn(CC)c(=O)c2Cl)c(Cl)c1 [Compound No. 10]; 46
COC(=O)CC(C)C(=O)c1ccc(OCC(CN(C)c2cnn(C(C)C)c(=O)c2Cl)OC)cc1 (centres unmarked) [Compound No. 167]; 30
CCCc1cc(O)ccc1OCCCNc1cnn(CC)c(=O)c1Cl [Compound No. 108]; 94
CCCc1cc(C(=O)O)ccc1OCCCN(C)c1cnn(C(C)C)c(=O)c1Cl [compound 74]; 73
CCc1cc(OC)ccc1OCCCNc1cnn(C(C)C)c(=O)c1Cl [compound 107]; 85

Each molecule below has a reported value. Please supply its inhibition at 10 µg/mL.
1. CCCc1cc(C(=O)O)ccc1OCC(CNc1cnn(C(C)C)c(=O)c1Cl)OC (centres unmarked) [compound 163]
2. CCOC(=O)c1ccc(OCCCNc2cnn(CC)c(=O)c2Cl)c(OC)c1 [compound 49]
3. CCCc1cc(C(=O)OC)ccc1OCCCNc1cn[nH]c(=O)c1Cl [Compound No. 4]
4. CCCc1cc(C(=O)OCC)ccc1OCCCNc1cnn(C(C)C)c(=O)c1Cl [Compound No. 64]
5. CCc1cc(C=CC(=O)O)ccc1OCCCNc1cnn(CC)c(=O)c1Cl [Compound No. 93]
6. CCc1cc(C(=O)O)ccc1OCCCNc1cnn(C(C)C)c(=O)c1Cl [compound 97]
7. COc1cccc(OCCCOc2cnn(C(C)C)c(=O)c2Cl)c1 [compound 35]

A.
1: 74; 2: 57; 3: 85; 4: 87; 5: 79; 6: 62; 7: 72
